- target system: Sox2 HMG (human, UniProt P48431 40-123)
- Sequence (P48431 40-123): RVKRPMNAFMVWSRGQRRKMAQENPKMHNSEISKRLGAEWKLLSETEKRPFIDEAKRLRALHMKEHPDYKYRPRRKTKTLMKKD
- protocol text: fluorescence anisotropy; printed ≤1; first (high-affinity) transition, 44% of signal; FP at 4°C; ERα: 20 mM Tris pH 7.5 (at 25°C), 100 mM NaCl, 5% glycerol, 0.01% IGEPAL; Sox2: 10 mM Tris pH 7.5 (at 25°C), 135 mM KCl, 15 mM NaCl, 0.1 mg/mL BSA, 4% Ficoll, 0.05% NP-40, 1 mM DTT; SPR: ERα buffer, 25°C
- condition description: protein: recombinant; tags: N-terminal His8-MBP, 3C-cleaved; G-quadruplex
quantity kind: Kd

[
  {
    "binder": "GGGAAGGGAAGGGAAGGGAA (structured_RNA) [G4 RNA (rG4), (G3A2)4]",
    "result": "< 1 nM"
  }
]

Where do these numbers come from? They come from paper PMC11251522.
